Listed here: items and their measured hEphA1-SEAP-: absorbance at 450 nm, percentage with respect to hEphA4-SEAP-His as 100%.
- Target under test: T1, human EphA1 (Homo sapiens, UniProt P21709)
- T1 construct: a protein of the extracellular region of each human Eph receptor fused with the SEAP protein and the His tag; made in house; host or cells: Expi293F cells (culture supernatant)
- T1 sequence (P21709 26-547 limits assumed): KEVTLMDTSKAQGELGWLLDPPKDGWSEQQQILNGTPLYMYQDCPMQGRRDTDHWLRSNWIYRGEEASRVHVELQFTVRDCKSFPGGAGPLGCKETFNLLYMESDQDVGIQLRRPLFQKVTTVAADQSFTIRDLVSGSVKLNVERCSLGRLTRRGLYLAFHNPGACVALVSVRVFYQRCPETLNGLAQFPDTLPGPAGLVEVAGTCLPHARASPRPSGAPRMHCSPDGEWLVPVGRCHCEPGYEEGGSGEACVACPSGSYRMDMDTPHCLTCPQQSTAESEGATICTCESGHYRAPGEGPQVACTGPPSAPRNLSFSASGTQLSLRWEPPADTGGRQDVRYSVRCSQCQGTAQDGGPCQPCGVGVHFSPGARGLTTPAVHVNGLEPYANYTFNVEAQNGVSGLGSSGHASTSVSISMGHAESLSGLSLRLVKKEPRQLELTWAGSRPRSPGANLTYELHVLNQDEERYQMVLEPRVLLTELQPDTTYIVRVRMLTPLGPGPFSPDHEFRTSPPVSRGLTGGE
- Experimental details: Selectivity ELISA of humanized antibodies for human Eph receptor
- Format: binding
- Run parameters: coated protein 1 nM
Reported endpoint: hEphA1-SEAP-: absorbance at 450 nm, percentage with respect to hEphA4-SEAP-His as 100% (%)

Molecule	Reported result
94 (antibody, V domains shown, constant regions without entry; synthetic humanized antibody light chain variable region sequence; synthetic humanized antibody heavy chain variable region sequence) VL: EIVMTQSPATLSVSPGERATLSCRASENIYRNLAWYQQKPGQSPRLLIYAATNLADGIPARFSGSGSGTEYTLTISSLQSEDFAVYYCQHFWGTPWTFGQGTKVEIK VH: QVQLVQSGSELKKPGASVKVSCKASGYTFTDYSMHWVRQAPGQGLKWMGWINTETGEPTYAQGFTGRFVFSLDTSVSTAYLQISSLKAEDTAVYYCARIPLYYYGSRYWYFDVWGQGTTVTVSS	6.5
145 (antibody, V domains shown, synthetic humanized antibody heavy chain variable region sequence; synthetic humanized antibody light chain variable region sequence) VH: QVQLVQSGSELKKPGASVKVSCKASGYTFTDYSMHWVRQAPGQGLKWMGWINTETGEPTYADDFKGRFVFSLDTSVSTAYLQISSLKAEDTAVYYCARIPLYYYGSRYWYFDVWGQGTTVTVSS VL: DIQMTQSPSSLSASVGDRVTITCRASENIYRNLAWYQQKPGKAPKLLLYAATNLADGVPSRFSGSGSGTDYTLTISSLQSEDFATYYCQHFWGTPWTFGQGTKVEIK	6.7
152 (antibody, V domains shown, synthetic humanized antibody heavy chain variable region sequence; synthetic humanized antibody light chain variable region sequence) VH: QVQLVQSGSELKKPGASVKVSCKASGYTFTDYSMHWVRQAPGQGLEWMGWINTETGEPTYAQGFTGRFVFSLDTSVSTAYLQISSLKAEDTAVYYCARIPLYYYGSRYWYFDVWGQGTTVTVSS VL: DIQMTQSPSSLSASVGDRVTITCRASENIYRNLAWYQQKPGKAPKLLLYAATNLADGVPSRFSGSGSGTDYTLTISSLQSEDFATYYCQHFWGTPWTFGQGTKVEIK	5.8
78 (antibody, V domains shown, synthetic humanized antibody heavy chain variable region sequence; synthetic humanized antibody light chain variable region sequence) VH: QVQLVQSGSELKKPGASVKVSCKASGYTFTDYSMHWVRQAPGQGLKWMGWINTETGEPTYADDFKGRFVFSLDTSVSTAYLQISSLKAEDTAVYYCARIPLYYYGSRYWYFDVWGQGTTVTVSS VL: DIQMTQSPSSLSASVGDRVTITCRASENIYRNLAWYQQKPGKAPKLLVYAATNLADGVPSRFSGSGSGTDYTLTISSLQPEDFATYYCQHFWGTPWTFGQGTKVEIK	6.6
